target: PIRT (Phosphoinositide-interacting regulator of TRP) (Homo sapiens, UniProt P0C851); assay: microscale thermophoresis; type: binding; conditions: read-out: Kd
Sequence (P0C851 whole entry): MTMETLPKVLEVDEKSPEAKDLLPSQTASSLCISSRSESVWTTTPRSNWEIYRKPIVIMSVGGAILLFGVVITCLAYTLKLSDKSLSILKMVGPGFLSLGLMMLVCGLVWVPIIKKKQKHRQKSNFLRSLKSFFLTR
pKd: −log10 of the molar value.
recorded.metric: pKd

1) C[C@]12CCC(=O)C=C1CC[C@@H]1[C@@H]2[C@@H](O)C[C@@]2(C)[C@H]1CC[C@]2(O)C(=O)CO [Cortisol] :: 3.10
2) CC(C)CCC[C@@H](C)[C@H]1CC[C@H]2[C@@H]3CC=C4C[C@@H](OC(=O)CCC(=O)O)CC[C@]4(C)[C@H]3CC[C@]12C [cholesteryl-hemisuccinate] :: 3.99
